- SYSTEM: Poly [ADP-ribose] polymerase 1 (Homo sapiens, UniProt P09874)
- Sequence (P09874 whole entry): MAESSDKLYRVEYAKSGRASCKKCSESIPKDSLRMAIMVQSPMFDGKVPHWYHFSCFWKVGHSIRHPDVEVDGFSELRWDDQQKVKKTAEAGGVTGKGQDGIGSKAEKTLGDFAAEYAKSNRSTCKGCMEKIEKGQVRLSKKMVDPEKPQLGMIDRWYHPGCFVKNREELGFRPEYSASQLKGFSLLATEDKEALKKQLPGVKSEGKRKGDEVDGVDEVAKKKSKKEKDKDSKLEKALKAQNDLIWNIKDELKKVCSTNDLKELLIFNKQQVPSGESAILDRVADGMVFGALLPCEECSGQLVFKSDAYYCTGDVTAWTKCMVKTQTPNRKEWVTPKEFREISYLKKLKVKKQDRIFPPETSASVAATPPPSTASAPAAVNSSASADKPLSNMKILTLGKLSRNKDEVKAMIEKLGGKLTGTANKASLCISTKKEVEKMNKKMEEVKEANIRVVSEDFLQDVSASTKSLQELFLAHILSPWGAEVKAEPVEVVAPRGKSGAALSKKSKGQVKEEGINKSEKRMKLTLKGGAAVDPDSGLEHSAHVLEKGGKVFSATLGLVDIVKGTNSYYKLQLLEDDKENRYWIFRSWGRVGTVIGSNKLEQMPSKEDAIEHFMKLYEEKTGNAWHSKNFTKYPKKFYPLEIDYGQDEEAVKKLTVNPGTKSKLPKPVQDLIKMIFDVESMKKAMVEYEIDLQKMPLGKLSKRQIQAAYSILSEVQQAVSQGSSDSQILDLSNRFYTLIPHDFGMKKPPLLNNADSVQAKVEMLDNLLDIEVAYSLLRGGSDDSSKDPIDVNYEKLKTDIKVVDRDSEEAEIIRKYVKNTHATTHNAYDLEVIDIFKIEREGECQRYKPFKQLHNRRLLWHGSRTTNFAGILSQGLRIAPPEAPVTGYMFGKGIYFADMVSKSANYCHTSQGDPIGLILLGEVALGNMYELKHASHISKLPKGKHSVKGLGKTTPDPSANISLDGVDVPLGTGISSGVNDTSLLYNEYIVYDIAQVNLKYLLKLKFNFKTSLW
- TEST_SUMMARY: Inhibition of PARP1 in human HeLa cells assessed as reduction in H2O2-induced PAR formation incubated for 30 mins followed by H2O2 addition for 15 mins by immunocytochemistry analysis
RESULT_TYPE: IC50 (µM)

(P) CC1c2cc(F)cc(C(N)=O)c2C(=O)N1C1CCN(C2CCCCC2)CC1 (racemic)
(Q) C[C@@H]1c2cccc(C(N)=O)c2C(=O)N1C1CCN(C2CCCCC2)CC1
(R) C[C@H]1c2cccc(C(N)=O)c2C(=O)N1C1CCN(C2CCCCC2)CC1
(S) CC1c2cccc(C(N)=O)c2C(=O)N1C1CCN(C2CCCCC2)CC1 (racemic)
List by increasing IC50. # respond with the labels, arranged in the requested order
R, S, Q, P

----------
- TEST_SUMMARY: Permeability of the compound in pH 7.4 HBSS at 10 uM incubated for 4 hrs by LC-MS/MS based PAMPA method
- Type: ADME
- TEST_CONTEXT: read-out: permeability
RESULT_TYPE: Papp at 4 h, 10 µM (×10⁻⁶ cm/s)

(A) CC1c2cccc(C(N)=O)c2C(=O)N1C1CCN(C2CCCCC2)CC1 (racemic)
(B) C[C@H]1c2cccc(C(N)=O)c2C(=O)N1C1CCN(C2CCCCC2)CC1
Of the pair A and B , name the member with the lesser recorded Papp at 4 h, 10 µM. Your choice should be expressed through its label.
B

----------
- TEST_SUMMARY: in vitro
- TEST_CONTEXT: mouse, plasma
- Description: Protein binding in mouse plasma
RESULT_TYPE: fraction unbound

(1) C[C@H]1c2cccc(C(N)=O)c2C(=O)N1C1CCN(C2CCCCC2)CC1
(2) CC1c2cccc(C(N)=O)c2C(=O)N1C1CCN(C2CCCCC2)CC1 (racemic)
Given the listed records, identify the one among 1 and 2 with higher fraction unbound. Your choice should be expressed through its label.
1
(1: 0.13, 2: 0.05)

----------
- TEST_SUMMARY: in vivo
- TEST_CONTEXT: Balb Nu/Nu, mouse, iv, 5 mg/kg
- Description: Volume of distribution at steady state in Balb Nu/Nu mouse at 5 mg/kg, iv measured upto 24 hrs by HPLC-MS-MS analysis
RESULT_TYPE: Vd at 24 h (L/kg)
Provide the reading as a plain figure in L/kg.

If you can, please state the reported Vd at 24 h value of CC1c2cccc(C(N)=O)c2C(=O)N1C1CCN(C2CCCCC2)CC1 (racemic) .
3.6

----------
- SYSTEM: Protein mono-ADP-ribosyltransferase PARP3 (Homo sapiens)
- Sequence (Q9Y6F1 whole entry): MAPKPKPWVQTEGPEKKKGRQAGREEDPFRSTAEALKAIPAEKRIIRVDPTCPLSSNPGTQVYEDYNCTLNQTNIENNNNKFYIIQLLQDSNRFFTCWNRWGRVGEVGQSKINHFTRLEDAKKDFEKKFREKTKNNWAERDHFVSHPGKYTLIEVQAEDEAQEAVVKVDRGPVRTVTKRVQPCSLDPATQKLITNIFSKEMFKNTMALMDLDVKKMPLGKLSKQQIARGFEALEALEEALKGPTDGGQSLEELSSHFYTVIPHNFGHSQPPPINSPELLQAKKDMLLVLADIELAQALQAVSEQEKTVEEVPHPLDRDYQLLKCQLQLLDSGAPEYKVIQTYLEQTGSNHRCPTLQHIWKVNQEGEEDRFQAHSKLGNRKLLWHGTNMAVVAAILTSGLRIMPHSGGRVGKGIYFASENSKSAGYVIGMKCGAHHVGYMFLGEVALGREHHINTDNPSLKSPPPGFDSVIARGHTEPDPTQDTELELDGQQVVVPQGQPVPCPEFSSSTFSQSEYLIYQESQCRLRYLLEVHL
- TEST_SUMMARY: Displacement of fluorescent probe from human recombinant His/GST-tagged PARP3 by fluorescent polarization assay
RESULT_TYPE: Kd

CC1c2cccc(C(N)=O)c2C(=O)N1C1CCN(C2CCCCC2)CC1 (racemic) | > 10 µM

Read the next record carefully.
If you can, please state the reported Kd value of C[C@H]1c2cccc(C(N)=O)c2C(=O)N1C1CCN(C2CCCCC2)CC1 .
> 10 µM

----------
- SYSTEM: Cytochrome P450 2B6 (Homo sapiens, UniProt P20813)
- Sequence (P20813 whole entry): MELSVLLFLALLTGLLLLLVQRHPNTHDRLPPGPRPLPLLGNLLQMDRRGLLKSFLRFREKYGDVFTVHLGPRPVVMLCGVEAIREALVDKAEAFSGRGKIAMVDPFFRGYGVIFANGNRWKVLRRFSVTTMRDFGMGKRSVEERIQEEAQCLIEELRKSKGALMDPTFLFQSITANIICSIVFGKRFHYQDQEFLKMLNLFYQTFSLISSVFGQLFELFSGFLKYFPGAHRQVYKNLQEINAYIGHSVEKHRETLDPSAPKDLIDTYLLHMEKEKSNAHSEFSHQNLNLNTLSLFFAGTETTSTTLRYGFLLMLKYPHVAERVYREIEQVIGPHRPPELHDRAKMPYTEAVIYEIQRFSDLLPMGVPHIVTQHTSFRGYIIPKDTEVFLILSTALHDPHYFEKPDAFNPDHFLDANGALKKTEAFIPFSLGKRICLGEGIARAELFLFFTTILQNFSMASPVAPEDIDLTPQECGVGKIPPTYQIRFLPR
RESULT_TYPE: pIC50
Quick note: pIC50 values are minus log10 of concentrations in mol/L.

If you can, please state the reported pIC50 value of CC1c2cccc(C(N)=O)c2C(=O)N1C1CCN(C2CCCCC2)CC1 (racemic) .
5.31

----------
- TEST_SUMMARY: AUC (0 to infinity) in Balb Nu/Nu mouse at 10 mg/kg, po measured upto 24 hrs by HPLC-MS-MS analysis
- Type: ADME, organism-based
- Parameters: dose 10 mg/kg, route oral, time infinity
- TEST_CONTEXT: in vivo
RESULT_TYPE: AUC(0-inf) (µM·h)

(P) C[C@H]1c2cccc(C(N)=O)c2C(=O)N1C1CCN(C2CCCCC2)CC1
(Q) CC1c2cccc(C(N)=O)c2C(=O)N1C1CCN(C2CCCCC2)CC1 (racemic)
Of the pair P and Q , name the member with the lesser recorded AUC(0-inf). Your choice should be expressed through its label.
P
(P: 4.9 µM·h, Q: 13.5 µM·h)

----------
- TEST_SUMMARY: Cmax in Balb Nu/Nu mouse at 10 mg/kg, iv measured upto 24 hrs by HPLC-MS-MS analysis
- Type: ADME, organism-based
- Set-up: dose 10 mg/kg, route intravenous
- TEST_CONTEXT: in vivo
RESULT_TYPE: Cmax (µM)
Provide the reading as a plain figure in µM.

If you can, please state the reported Cmax value of C[C@H]1c2cccc(C(N)=O)c2C(=O)N1C1CCN(C2CCCCC2)CC1 .
4.9

----------
- TEST_SUMMARY: AUC (0 to infinity) in Balb Nu/Nu mouse at 10 mg/kg, iv measured upto 24 hrs by HPLC-MS-MS analysis
- Format: ADME, organism-based
- Design: dose 10 mg/kg, time infinity, route intravenous
- TEST_CONTEXT: in vivo
RESULT_TYPE: AUC(0-inf) (µM·h)
Provide the reading as a plain figure in µM·h.

If you can, please state the reported AUC(0-inf) value of C[C@H]1c2cccc(C(N)=O)c2C(=O)N1C1CCN(C2CCCCC2)CC1 .
8.2

----------
- TEST_SUMMARY: Cmax in Balb Nu/Nu mouse at 5 mg/kg, iv measured upto 24 hrs by HPLC-MS-MS analysis
- Assay type: ADME, organism-based
- Design: dose 5 mg/kg, route intravenous
- TEST_CONTEXT: in vivo
RESULT_TYPE: Cmax (nM)
Provide the reading as a plain figure in nM.

If you can, please state the reported Cmax value of CC1c2cccc(C(N)=O)c2C(=O)N1C1CCN(C2CCCCC2)CC1 (racemic) .
2500

----------
- TEST_SUMMARY: Half life in Balb Nu/Nu mouse at 10 mg/kg, po measured upto 24 hrs by HPLC-MS-MS analysis
- Assay type: ADME, organism-based
- TEST_CONTEXT: in vivo
RESULT_TYPE: half-life (h)

C[C@H]1c2cccc(C(N)=O)c2C(=O)N1C1CCN(C2CCCCC2)CC1 | 2.6
CC1c2cccc(C(N)=O)c2C(=O)N1C1CCN(C2CCCCC2)CC1 (racemic) | 3.1

----------
- TEST_SUMMARY: in vitro
- Set-up: dose or concentration left out as unconfirmed
- TEST_CONTEXT: rat, hepatocytes
- Description: Intrinsic clearance in rat hepatocytes at 1 mM measured upto 90 mins by LC-MS/MS method
RESULT_TYPE: CLint scaled at 1.5 h (mL/min/kg)

C[C@H]1c2cccc(C(N)=O)c2C(=O)N1C1CCN(C2CCCCC2)CC1 | 5
CC1c2cccc(C(N)=O)c2C(=O)N1C1CCN(C2CCCCC2)CC1 (racemic) | 5

----------
- TEST_SUMMARY: AUC (0 to infinity) in Balb Nu/Nu mouse at 5 mg/kg, iv measured upto 24 hrs by HPLC-MS-MS analysis
- Format: ADME, organism-based
- Set-up: dose 5 mg/kg, time infinity, route intravenous
- TEST_CONTEXT: in vivo
RESULT_TYPE: AUC(0-inf) (µM·h)
Provide the reading as a plain figure in µM·h.

If you can, please state the reported AUC(0-inf) value of CC1c2cccc(C(N)=O)c2C(=O)N1C1CCN(C2CCCCC2)CC1 (racemic) .
6.3

----------
# maps each entry to its pKd
- SYSTEM: Poly [ADP-ribose] polymerase 2 (Homo sapiens, UniProt Q9UGN5)
- Sequence (Q9UGN5 whole entry): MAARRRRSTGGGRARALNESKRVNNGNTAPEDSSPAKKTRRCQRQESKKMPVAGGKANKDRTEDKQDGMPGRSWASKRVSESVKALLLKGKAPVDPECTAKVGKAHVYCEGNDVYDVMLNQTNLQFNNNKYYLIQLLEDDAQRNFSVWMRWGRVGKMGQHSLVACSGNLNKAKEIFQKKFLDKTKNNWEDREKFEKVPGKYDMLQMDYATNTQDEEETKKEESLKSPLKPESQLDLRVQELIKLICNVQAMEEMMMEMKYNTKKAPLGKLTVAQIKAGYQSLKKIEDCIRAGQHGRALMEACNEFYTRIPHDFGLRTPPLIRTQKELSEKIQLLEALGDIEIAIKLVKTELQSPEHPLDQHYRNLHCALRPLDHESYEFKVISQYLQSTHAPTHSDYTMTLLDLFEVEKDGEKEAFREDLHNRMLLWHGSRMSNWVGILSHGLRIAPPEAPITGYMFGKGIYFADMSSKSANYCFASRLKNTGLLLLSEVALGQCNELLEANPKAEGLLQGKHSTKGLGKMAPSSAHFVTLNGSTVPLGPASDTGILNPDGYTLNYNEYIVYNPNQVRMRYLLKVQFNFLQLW
- TEST_SUMMARY: Displacement of fluorescent probe from human recombinant full length His-tagged PARP2 by fluorescent polarization assay
pKd: −log10 of the molar value.

CC1c2cccc(C(N)=O)c2C(=O)N1C1CCN(C2CCCCC2)CC1 (racemic) | < 5.00

If you can, please state the reported pKd value of C[C@H]1c2cccc(C(N)=O)c2C(=O)N1C1CCN(C2CCCCC2)CC1 .
< 5.00

----------
- TEST_SUMMARY: Oral bioavailability in Balb Nu/Nu mouse at 10 mg/kg measured upto 24 hrs by HPLC-MS-MS analysis
- Assay type: ADME, organism-based
- TEST_CONTEXT: in vivo
RESULT_TYPE: bioavailability (%)

C[C@H]1c2cccc(C(N)=O)c2C(=O)N1C1CCN(C2CCCCC2)CC1 | 78.3
CC1c2cccc(C(N)=O)c2C(=O)N1C1CCN(C2CCCCC2)CC1 (racemic) | 100

----------
- TEST_SUMMARY: Half life in Balb Nu/Nu mouse at 5 mg/kg, iv measured upto 24 hrs by HPLC-MS-MS analysis
- Format: ADME, organism-based
- TEST_CONTEXT: in vivo
RESULT_TYPE: half-life (h)
Provide the reading as a plain figure in h.

If you can, please state the reported half-life value of CC1c2cccc(C(N)=O)c2C(=O)N1C1CCN(C2CCCCC2)CC1 (racemic) .
1.8
